# System: WPMY1-TUBA1B-RELA
# TEST PROTOCOL: phenotypically active (imaging signature differs from DMSO and reproducible) at any of 0.3-9 uM (binary (1 = active, 0 = inactive)); higher = active
# ASSAY CONTEXT: treatment time: 24 h
Where a name gives a salt, the structure may show the parent alone.
Outcome codes: yes = active, no = inactive

[
  {
    "COMPOUND": "O[C@H]1[C@H](O)[C@@H](O)CN2CC[C@H](O)[C@H]12 [Castanospermine]",
    "TESTED ON": "WPMY1-TUBA1B-RELA",
    "CLASS": "no"
  },
  {
    "COMPOUND": "CC[C@H]1C[N@@]2CC[C@H]1C[C@H]2[C@@H](O)c1ccnc2ccc(O)cc12 [Hydrocupreine]",
    "TESTED ON": "WPMY1-TUBA1B-RELA",
    "CLASS": "no"
  },
  {
    "COMPOUND": "C[C@]12Cc3cn[nH]c3C[C@@H]1CC[C@@H]1[C@@H]2CC[C@@]2(C)[C@H]1CC[C@]2(C)O [stanozolol]",
    "TESTED ON": "WPMY1-TUBA1B-RELA",
    "CLASS": "no"
  },
  {
    "COMPOUND": "Cc1sc2c(c1C)C(c1ccc(Cl)cc1)=N[C@@H](CC(N)=O)c1nnc(C)n1-2",
    "TESTED ON": "WPMY1-TUBA1B-RELA",
    "CLASS": "yes"
  },
  {
    "COMPOUND": "Clc1ccc2c(c1)C(c1ccccc1)=NCc1nncn1-2 [estazolam]",
    "TESTED ON": "WPMY1-TUBA1B-RELA",
    "CLASS": "no"
  },
  {
    "COMPOUND": "O=C1NC(=O)c2c1c1c3ccccc3n3c1c1c2c2ccccc2n1C1CCC3O1",
    "TESTED ON": "WPMY1-TUBA1B-RELA",
    "CLASS": "no"
  },
  {
    "COMPOUND": "Cc1sc2c(c1C)C(c1ccc(Cl)cc1)=N[C@@H](CC(=O)OC(C)(C)C)c1nnc(C)n1-2",
    "TESTED ON": "WPMY1-TUBA1B-RELA",
    "CLASS": "yes"
  },
  {
    "COMPOUND": "O=c1ccc2ccc3occc3c2o1 [Angelicin]",
    "TESTED ON": "WPMY1-TUBA1B-RELA",
    "CLASS": "no"
  },
  {
    "COMPOUND": "O=P1(N(CCCl)CCCl)NCCCO1 (stereo not given) [cyclophosphamide]",
    "TESTED ON": "WPMY1-TUBA1B-RELA",
    "CLASS": "no"
  },
  {
    "COMPOUND": "C/C=C1\\C[C@@H](C)[C@](O)(CO)C(=O)OCC2=CCN3CC[C@@H](OC1=O)[C@@H]23 [Retrorsine]",
    "TESTED ON": "WPMY1-TUBA1B-RELA",
    "CLASS": "no"
  },
  {
    "COMPOUND": "CN1C2CCC1CC(O)C2 (stereo not given) [Tropine]",
    "TESTED ON": "WPMY1-TUBA1B-RELA",
    "CLASS": "no"
  },
  {
    "COMPOUND": "COc1cc2c(c(OC)c1OC)-c1ccc(OC)c(=O)cc1[C@@H](NC(C)=O)CC2 [colchicine]",
    "TESTED ON": "WPMY1-TUBA1B-RELA",
    "CLASS": "yes"
  },
  {
    "COMPOUND": "N[C@H]1C[C@@H]1c1ccccc1 [tranylcypromine]",
    "TESTED ON": "WPMY1-TUBA1B-RELA",
    "CLASS": "no"
  },
  {
    "COMPOUND": "COc1ccc2c3c1O[C@H]1C(=O)CC[C@H]4[C@@H](C2)N(C)CC[C@]314 [hydrocodone]",
    "TESTED ON": "WPMY1-TUBA1B-RELA",
    "CLASS": "no"
  },
  {
    "COMPOUND": "C=C(C)[C@H]1Cc2c(ccc3c2O[C@@H]2COc4cc(OC)c(OC)cc4[C@@H]2C3=O)O1 [Rotenone]",
    "TESTED ON": "WPMY1-TUBA1B-RELA",
    "CLASS": "yes"
  },
  {
    "COMPOUND": "CC(C)[C@H]1C(=O)O[C@@H]2CCN3CC=C(COC(=O)[C@](C)(O)[C@@]1(C)O)[C@H]23 [Trichodesmine]",
    "TESTED ON": "WPMY1-TUBA1B-RELA",
    "CLASS": "no"
  },
  {
    "COMPOUND": "COc1cc2c(c(OC)c1OC)-c1ccc(O)c(=O)cc1[C@@H](N)CC2 [Trimethylcolchicinic acid]",
    "TESTED ON": "WPMY1-TUBA1B-RELA",
    "CLASS": "no"
  },
  {
    "COMPOUND": "C[C@]12C/C(=C\\O)C(=O)C[C@@H]1CC[C@@H]1[C@@H]2CC[C@@]2(C)[C@H]1CC[C@]2(C)O [oxymetholone]",
    "TESTED ON": "WPMY1-TUBA1B-RELA",
    "CLASS": "no"
  },
  {
    "COMPOUND": "CCN(C)C(=O)Oc1cccc([C@H](C)N(C)C)c1 [rivastigmine]",
    "TESTED ON": "WPMY1-TUBA1B-RELA",
    "CLASS": "no"
  },
  {
    "COMPOUND": "COc1cc(C(=O)O[C@H]2C[C@H]3CC[C@@H](C2)N3C)ccc1O [Fillalbin]",
    "TESTED ON": "WPMY1-TUBA1B-RELA",
    "CLASS": "no"
  },
  {
    "COMPOUND": "CCN(C(C)=O)c1cccc(-c2ccnc3c(C#N)cnn23)c1 [zaleplon]",
    "TESTED ON": "WPMY1-TUBA1B-RELA",
    "CLASS": "no"
  },
  {
    "COMPOUND": "CC(C)(N)Cc1ccccc1 [phentermine]",
    "TESTED ON": "WPMY1-TUBA1B-RELA",
    "CLASS": "no"
  },
  {
    "COMPOUND": "COc1ccc(C(=O)Cc2c(CCN(C)C)cc3c(c2OC)OCO3)c(C(=O)O)c1OC [Narcétine]",
    "TESTED ON": "WPMY1-TUBA1B-RELA",
    "CLASS": "no"
  },
  {
    "COMPOUND": "C[C@H]1CCCC=C[C@@H]2C[C@H](O)C[C@H]2[C@H](O)C=CC(=O)O1 [brefeldin-a]",
    "TESTED ON": "WPMY1-TUBA1B-RELA",
    "CLASS": "yes"
  },
  {
    "COMPOUND": "C=C[C@H]1C[N@@]2CC[C@H]1C[C@H]2[C@H](O)c1ccnc2ccccc12 [(-)-Cinchonidine]",
    "TESTED ON": "WPMY1-TUBA1B-RELA",
    "CLASS": "no"
  },
  {
    "COMPOUND": "COc1cc2c(cc1OC)[C@@]13CCN4CC5=CCO[C@H]6CC(=O)N2[C@H]1[C@H]6[C@H]5C[C@H]43 [Brucine]",
    "TESTED ON": "WPMY1-TUBA1B-RELA",
    "CLASS": "no"
  },
  {
    "COMPOUND": "CCN(CC)C(C)C(=O)c1ccccc1 (stereo not given) [amfepramone]",
    "TESTED ON": "WPMY1-TUBA1B-RELA",
    "CLASS": "no"
  },
  {
    "COMPOUND": "COC[C@H]1OC(=O)c2coc3c2[C@@]1(C)C1=C(C3=O)[C@@H]2CCC(=O)[C@@]2(C)C[C@H]1OC(C)=O [wortmannin]",
    "TESTED ON": "WPMY1-TUBA1B-RELA",
    "CLASS": "no"
  },
  {
    "COMPOUND": "N#CC(C#N)=NNc1ccc(OC(F)(F)F)cc1",
    "TESTED ON": "WPMY1-TUBA1B-RELA",
    "CLASS": "yes"
  },
  {
    "COMPOUND": "CCN1C[C@]2(COC)CC[C@H](O)[C@]34[C@@H]5C[C@H]6[C@H](OC)[C@@H]5[C@](O)(C[C@@H]6OC)[C@](O)([C@H]13)[C@@H](OC)[C@H]24 [Delsoline]",
    "TESTED ON": "WPMY1-TUBA1B-RELA",
    "CLASS": "no"
  },
  {
    "COMPOUND": "CC1=C(O)C(=O)[C@@H]2O[C@@H]2C1=O [(-)-Terreic acid]",
    "TESTED ON": "WPMY1-TUBA1B-RELA",
    "CLASS": "no"
  },
  {
    "COMPOUND": "CNC(=O)Oc1ccc2c(c1)[C@]1(C)CCN(C)O[C@@H]1N2C [Geneserine]",
    "TESTED ON": "WPMY1-TUBA1B-RELA",
    "CLASS": "no"
  },
  {
    "COMPOUND": "CN1C(CC(O)c2ccccc2)CCCC1CC(O)c1ccccc1 (stereo not given) [Lobelanidine hydrochloride]",
    "TESTED ON": "WPMY1-TUBA1B-RELA",
    "CLASS": "no"
  },
  {
    "COMPOUND": "COc1ccc(N(C(=O)Oc2c(C)cccc2C)c2ccnc(Nc3ccc(N4CCN(C)CC4)cc3)n2)c(OC)c1",
    "TESTED ON": "WPMY1-TUBA1B-RELA",
    "CLASS": "no"
  },
  {
    "COMPOUND": "CC[C@]12C=CCN3CC[C@]4(C(=C(C(=O)OC)C1)Nc1ccccc14)[C@@H]32 [Tabersonine dichlorhydrate]",
    "TESTED ON": "WPMY1-TUBA1B-RELA",
    "CLASS": "yes"
  }
]

The measured values listed here are drawn from the supplement of paper PMC7411054.
